Test system: SW-620 colon
Assay: NCI tumour cell line growth inhibition, 48 h
The entries below are paired with their reported TGI.

Report TGI, nothing else, for this compound: CN(C)c1ccc(/C=c2/c3ccccc3n3c2cc(C24CC5CC(CC(C5)C2)C4)[n+]3C)cc1
1.44 µM

Report TGI, nothing else, for this compound: O=C([O][Hg][CH2]C1COCC([CH2][Hg][O]C(=O)c2ccccc2)O1)c1ccccc1 (stereo not given)
3.32 µM

Report TGI, nothing else, for this compound: COc1ccc(C(=O)OC2C=COC(C)C2OC(=O)c2ccc(OC)cc2)cc1 (stereo not given)
35.1 µM

Report TGI, nothing else, for this compound: CC1(C)CC(n2cnc(-c3ccc(F)cc3)c2-c2ccnc(N)n2)CC(C)(C)N1
> 25 µM

Report TGI, nothing else, for this compound: CCCCCCCCC/C=C1\CC(CO)(COC(=O)C2CCCCC2)OC1=O (stereo not given)
33.1 µM

* * *

Test system: KM12 colon
Assay: NCI tumour cell line growth inhibition, 48 h
Assay Metric: log10 of TGI (log10 of the value in µM)
// do not treat as linear: log10 of TGI, unit µM

See these solved cases before continuing.
>>> print(df.to_string())
                                   compound  target_under_test  assay_metric  test_value
0  Cc1cc(NCCCCCCCCCC[n+]2c(C)cc(N)c3ccccc32)c2ccccc2n1         KM12 colon  log10 of TGI        0.38
1  O=C([O][Hg][CH2]C1COCC([CH2][Hg][O]C(=O)c2ccccc2)O1)c1ccccc1 (stereo not given)         KM12 colon  log10 of TGI        1.50
2     c1ccc2c(c1)-c1ccccc1C2N1CC2CCC(CC2)C1         KM12 colon  log10 of TGI        1.60
3  CCCN1CCN(c2ccc3nc(-c4ccc5nc(-c6cc(OC)ccc6OC)[nH]c5c4)[nH]c3c2)CC1         KM12 colon  log10 of TGI        0.54

Please turn your attention to the following entry.
Report log10 of TGI, nothing else, for this compound: COc1ccc(-c2ccc(/C=N/n3c(COc4ccc(Cl)cc4Cl)nn(CN4CCN(C)CC4)c3=S)o2)c([N+](=O)[O-])c1
1.56

* * *

Tested on: SF-295 CNS
Assay: NCI tumour cell line growth inhibition, 48 h
The entries below are paired with their reported TGI.

See these solved cases before continuing.
                                   molecule  test_value
0  COc1cc2c(Oc3ccc4[nH]c(C)cc4c3F)ccnc2cc1OCC1(N)CC1     3.92 µM
1            O=[N+]([O-])c1ccc2[nH]ncc2c1Cl    > 100 µM

Report TGI, nothing else, for this molecule: C=CCN(CC=C)C(=O)c1cc(C)nc2c1c(=O)n(-c1ccccc1)c(=O)n2CC(O)CN1CCN(c2ncccn2)CC1 (stereo unspecified)
> 100 µM

Report TGI, nothing else, for this molecule: CN(C)C(=O)Nc1cc2c3c(c1)CCCN3CCC2
> 10 µM

Report TGI, nothing else, for this molecule: Cc1cc(I)cc(CN(C)CCN2CCCC2)c1O
36.6 µM

Report TGI, nothing else, for this molecule: CCOC(=O)c1c(-c2ccc(O)c(OC)c2)c(C#N)c(=S)n(C2OC(COC(C)=O)C(OC(C)=O)C(OC(C)=O)C2OC(C)=O)c1-c1ccccc1 (stereo unspecified)
> 100 µM

Report TGI, nothing else, for this molecule: CN(C)CC/C(=N\Nc1ccccc1)c1ccccc1
6.89 µM

Report TGI, nothing else, for this molecule: O=C(O)c1ccccc1C(=O)Nn1cnnc1
> 100 µM

Report TGI, nothing else, for this molecule: Cc1cccc(Cl)c1NC(=O)/C=C/c1ccccc1
> 100 µM

Report TGI, nothing else, for this molecule: COC1CC(OC2CCC3(C)C(CCC45CCC(C6=CC(=O)OC6)C(C)(CCC43)C5=O)C2)OC(C)C1O (stereo unspecified)
> 100 µM

Report TGI, nothing else, for this molecule: N=C(N)c1csc([C@@H]2O[C@H](CO)[C@@H](O)[C@H]2O)n1
> 100 µM

Report TGI, nothing else, for this molecule: Cc1nc2cc(N)c(F)cc2[nH]1
> 100 µM

Report TGI, nothing else, for this molecule: O=P([O-])(O)OP(=O)([O-])O.[NH-][C@@H]1CCCC[C@H]1[NH-].[Pt+4]
> 100 µM

Report TGI, nothing else, for this molecule: Cc1cc(C)nc(NS(=O)(=O)c2ccc(Nc3c4ccc(Cl)cc4nc4c(C(=O)Nc5ccc(S(=O)(=O)N=C(N)N)cc5)cccc34)cc2)n1
> 100 µM

Report TGI, nothing else, for this molecule: COc1cc(NP(=O)(Oc2ccccc2)Oc2ccccc2)ccc1Nc1c2ccccc2nc2c1[nH]c1ccccc12
13.1 µM

Report TGI, nothing else, for this molecule: O=c1[nH]ccc2nc(N3CCC(O)CC3)nc(Nc3cccc(C(F)(F)F)c3)c12
7.85 µM

Report TGI, nothing else, for this molecule: NC1=NN(c2ccccc2)C2(O)c3ccncc3C3=NN(c4ccccc4)C(=O)C132 (stereo unspecified)
> 100 µM

Report TGI, nothing else, for this molecule: COc1cc(NCc2ccc3nc(OC)c(OC)nc3c2)cc(OC)c1OC
> 100 µM

Report TGI, nothing else, for this molecule: O=C(O)c1ccc(Nc2nc3ccccc3nc2-c2cccs2)cc1
> 100 µM

Report TGI, nothing else, for this molecule: CCOC(=O)C1=C(Nc2ccc(Cl)cc2Cl)OC/C1=N\NS(=O)(=O)c1ccc(C)cc1
> 100 µM

Report TGI, nothing else, for this molecule: CCn1c(O)c(C=N)c(=O)n(CC)c1=O
> 100 µM
